protocolDetails: Plasma pharmacokinetics in patients
Assay type: in vivo, human
experimentalSetup: human, plasma, oral, 45 mg, Tmax, median, Day 1, 45 mg QD, 4 patients
assayEndpoint: Tmax (h)
Report only the number, with the unit h understood.

Sample CS(=O)(=O)N1CCN(Cc2cc3nc(-c4cccc5[nH]ncc45)nc(N4CCOCC4)c3s2)CC1 [pictilisib] ; Tmax observed: 2

* * *

protocolDetails: Plasma pharmacokinetics in patients
Assay type: in vivo, human
experimentalSetup: human, plasma, oral, 30 mg, Tmax, median, Day 15, 30 mg QD, 3 patients
assayEndpoint: Tmax (h)
Report only the number, with the unit h understood.

Sample `CS(=O)(=O)N1CCN(Cc2cc3nc(-c4cccc5[nH]ncc45)nc(N4CCOCC4)c3s2)CC1` ; Tmax observed: 1

* * *

protocolDetails: Plasma pharmacokinetics in patients
Format: in vivo, human
experimentalSetup: human, plasma, oral, 245 mg, AUC 0-24, geometric mean, Day 1, 245 mg QD, 3 patients
assayEndpoint: AUC(0-t) (µM·h)
Report only the number, with the unit µM·h understood.

Sample CS(=O)(=O)N1CCN(Cc2cc3nc(-c4cccc5[nH]ncc45)nc(N4CCOCC4)c3s2)CC1 [pictilisib] ; AUC(0-t) observed: 8.18

* * *

protocolDetails: Plasma pharmacokinetics in patients
Type: in vivo, human
experimentalSetup: human, plasma, oral, 180 mg, Cmax, geometric mean, Day 1, 180 mg QD, 3 patients
assayEndpoint: Cmax (nM)
Report only the number, with the unit nM understood.

Sample `CS(=O)(=O)N1CCN(Cc2cc3nc(-c4cccc5[nH]ncc45)nc(N4CCOCC4)c3s2)CC1` ; Cmax observed: 611

* * *

protocolDetails: Plasma pharmacokinetics in patients
Type: in vivo, human
experimentalSetup: human, plasma, oral, 80 mg, Cmax, geometric mean, Day 1, 80 mg QD, 3 patients
assayEndpoint: Cmax (nM)
Report only the number, with the unit nM understood.

Sample `CS(=O)(=O)N1CCN(Cc2cc3nc(-c4cccc5[nH]ncc45)nc(N4CCOCC4)c3s2)CC1` ; Cmax observed: 632

* * *

protocolDetails: Plasma pharmacokinetics in patients
Assay type: in vivo, human
experimentalSetup: human, plasma, oral, 45 mg, AUC 0-24, geometric mean, Day 1, 45 mg QD, 4 patients
assayEndpoint: AUC(0-t) (µM·h)
Report only the number, with the unit µM·h understood.

Sample CS(=O)(=O)N1CCN(Cc2cc3nc(-c4cccc5[nH]ncc45)nc(N4CCOCC4)c3s2)CC1 [pictilisib] ; AUC(0-t) observed: 2.77

* * *

protocolDetails: Plasma pharmacokinetics in patients
Format: in vivo, human
experimentalSetup: human, plasma, oral, 100 mg, Tmax, median, Day 1, 100 mg QD, 5 patients
assayEndpoint: Tmax (h)
Report only the number, with the unit h understood.

Sample CS(=O)(=O)N1CCN(Cc2cc3nc(-c4cccc5[nH]ncc45)nc(N4CCOCC4)c3s2)CC1 [pictilisib] ; Tmax observed: 2

* * *

protocolDetails: Plasma pharmacokinetics in patients
Type: in vivo, human
experimentalSetup: human, plasma, oral, 45 mg, Tmax, median, Day 15, 45 mg QD, 4 patients
assayEndpoint: Tmax
Remember to put the unit after the number in your answer.

Sample CS(=O)(=O)N1CCN(Cc2cc3nc(-c4cccc5[nH]ncc45)nc(N4CCOCC4)c3s2)CC1 [pictilisib] ; Tmax observed: 2 h

* * *

protocolDetails: Plasma pharmacokinetics in patients
Type: in vivo, human
experimentalSetup: human, plasma, oral, 60 mg, AUC 0-24, geometric mean, Day 1, 60 mg QD, 4 patients
assayEndpoint: AUC(0-t) (µM·h)
Report only the number, with the unit µM·h understood.

Sample `CS(=O)(=O)N1CCN(Cc2cc3nc(-c4cccc5[nH]ncc45)nc(N4CCOCC4)c3s2)CC1` ; AUC(0-t) observed: 2.02

* * *

protocolDetails: Plasma pharmacokinetics in patients
Type: in vivo, human
experimentalSetup: human, plasma, oral, 340 mg
assayEndpoint: half-life

Sample `CS(=O)(=O)N1CCN(Cc2cc3nc(-c4cccc5[nH]ncc45)nc(N4CCOCC4)c3s2)CC1` ; half-life observed: 20.9 h

* * *

protocolDetails: Plasma pharmacokinetics in patients
Assay type: in vivo, human
experimentalSetup: human, plasma, oral, 400 mg, AUC 0-24, geometric mean, Day 1, 400 mg QD, 1 patient
assayEndpoint: AUC(0-t) (µM·h)
Report only the number, with the unit µM·h understood.

Sample `CS(=O)(=O)N1CCN(Cc2cc3nc(-c4cccc5[nH]ncc45)nc(N4CCOCC4)c3s2)CC1` ; AUC(0-t) observed: 15.6

* * *

protocolDetails: Plasma pharmacokinetics in patients
Assay type: in vivo, human
experimentalSetup: human, plasma, oral, 100 mg
assayEndpoint: half-life (h)
Report only the number, with the unit h understood.

Sample `CS(=O)(=O)N1CCN(Cc2cc3nc(-c4cccc5[nH]ncc45)nc(N4CCOCC4)c3s2)CC1` ; half-life observed: 14.6

* * *

protocolDetails: Plasma pharmacokinetics in patients
Type: in vivo, human
experimentalSetup: human, plasma, oral, 80 mg, Tmax, median, Day 15, 80 mg QD, 3 patients
assayEndpoint: Tmax (h)
Report only the number, with the unit h understood.

Sample `CS(=O)(=O)N1CCN(Cc2cc3nc(-c4cccc5[nH]ncc45)nc(N4CCOCC4)c3s2)CC1` ; Tmax observed: 3

* * *

protocolDetails: Plasma pharmacokinetics in patients
Type: in vivo, human
experimentalSetup: human, plasma, oral, 245 mg
assayEndpoint: half-life (h)
Report only the number, with the unit h understood.

Sample `CS(=O)(=O)N1CCN(Cc2cc3nc(-c4cccc5[nH]ncc45)nc(N4CCOCC4)c3s2)CC1` ; half-life observed: 16.8

* * *

protocolDetails: Plasma pharmacokinetics in patients
Assay type: in vivo, human
experimentalSetup: human, plasma, oral
assayEndpoint: half-life

Sample `CS(=O)(=O)N1CCN(Cc2cc3nc(-c4cccc5[nH]ncc45)nc(N4CCOCC4)c3s2)CC1` ; half-life observed: 13.1 to 24.1 h

* * *

protocolDetails: Plasma pharmacokinetics in patients
Assay type: in vivo, human
experimentalSetup: human, plasma, oral, 80 mg
assayEndpoint: half-life (h)
Report only the number, with the unit h understood.

Sample CS(=O)(=O)N1CCN(Cc2cc3nc(-c4cccc5[nH]ncc45)nc(N4CCOCC4)c3s2)CC1 [pictilisib] ; half-life observed: 20.1

* * *

protocolDetails: Plasma pharmacokinetics in patients
Type: in vivo, human
experimentalSetup: human, plasma, oral, 60 mg, Tmax, median, Day 15, 60 mg QD, 3 patients
assayEndpoint: Tmax (h)
Report only the number, with the unit h understood.

Sample `CS(=O)(=O)N1CCN(Cc2cc3nc(-c4cccc5[nH]ncc45)nc(N4CCOCC4)c3s2)CC1` ; Tmax observed: 3

* * *

protocolDetails: Plasma pharmacokinetics in patients
Type: in vivo, human
experimentalSetup: human, plasma, oral, 180 mg, AUC 0-24, geometric mean, Day 15, 180 mg QD, 3 patients
assayEndpoint: AUC(0-t) (µM·h)
Report only the number, with the unit µM·h understood.

Sample CS(=O)(=O)N1CCN(Cc2cc3nc(-c4cccc5[nH]ncc45)nc(N4CCOCC4)c3s2)CC1 [pictilisib] ; AUC(0-t) observed: 8.25

* * *

protocolDetails: Plasma pharmacokinetics in patients
Format: in vivo, human
experimentalSetup: human, plasma, oral, 450 mg, Cmax, geometric mean, Day 1, 450 mg QD, 3 patients
assayEndpoint: Cmax (nM)
Report only the number, with the unit nM understood.

Sample `CS(=O)(=O)N1CCN(Cc2cc3nc(-c4cccc5[nH]ncc45)nc(N4CCOCC4)c3s2)CC1` ; Cmax observed: 1950

* * *

protocolDetails: Plasma pharmacokinetics in patients
Assay type: in vivo, human
experimentalSetup: human, plasma, oral, 30 mg, AUC 0-24, geometric mean, Day 1, 30 mg QD, 3 patients
assayEndpoint: AUC(0-t)
Remember to put the unit after the number in your answer.

Sample CS(=O)(=O)N1CCN(Cc2cc3nc(-c4cccc5[nH]ncc45)nc(N4CCOCC4)c3s2)CC1 [pictilisib] ; AUC(0-t) observed: 1.18 µM·h

* * *

protocolDetails: Plasma pharmacokinetics in patients
Assay type: in vivo, human
experimentalSetup: human, plasma, oral, 450 mg, Tmax, median, Day 15, 450 mg QD, 3 patients
assayEndpoint: Tmax
Remember to put the unit after the number in your answer.

Sample CS(=O)(=O)N1CCN(Cc2cc3nc(-c4cccc5[nH]ncc45)nc(N4CCOCC4)c3s2)CC1 [pictilisib] ; Tmax observed: 2 h

* * *

protocolDetails: Plasma pharmacokinetics in patients
Assay type: in vivo, human
experimentalSetup: human, plasma, oral, 60 mg, Cmax, geometric mean, Day 15, 60 mg QD, 3 patients
assayEndpoint: Cmax (µM)
Report only the number, with the unit µM understood.

Sample `CS(=O)(=O)N1CCN(Cc2cc3nc(-c4cccc5[nH]ncc45)nc(N4CCOCC4)c3s2)CC1` ; Cmax observed: 0.27

* * *

protocolDetails: Plasma pharmacokinetics in patients
Format: in vivo, human
experimentalSetup: human, plasma, oral, 130 mg, Tmax, median, Day 15, 130 mg QD, 3 patients
assayEndpoint: Tmax (h)
Report only the number, with the unit h understood.

Sample CS(=O)(=O)N1CCN(Cc2cc3nc(-c4cccc5[nH]ncc45)nc(N4CCOCC4)c3s2)CC1 [pictilisib] ; Tmax observed: 1
